As shown below, each of these variants has a reported yeast fitness value.
B1: tRNA (parent)
chain: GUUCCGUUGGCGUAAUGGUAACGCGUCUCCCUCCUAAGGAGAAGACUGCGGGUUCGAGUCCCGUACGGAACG

# Variants of: B1
# assay_remarks: yeast fitness relative to wild type (ratio to wild type); higher = fitter; tRNA-Arg(CCU), competitive growth, 37 C, YPD
Fewer inactive variants are shown than the library holds.

mutant_name: A36C G39C A65C A69C
yeast fitness: ≤ 0.5
//
mutant_name: U8A U28A C31G G44A G51C A65G
yeast fitness: ≤ 0.5
//
mutant_name: A21U C31A C61U
yeast fitness: ≤ 0.5
//
mutant_name: G10C C34G G63A A69U A70C
yeast fitness: ≤ 0.5
//
mutant_name: A15U A45C C46A G67A
yeast fitness: ≤ 0.5
//
mutant_name: U7A U8C C29U
yeast fitness: ≤ 0.5
//
mutant_name: U8G C27A
yeast fitness: 0.564
//
mutant_name: A14G C31U A37G A45C A70G
yeast fitness: ≤ 0.5
//
mutant_name: C11U A20G G23C C31U C46G A70U
yeast fitness: ≤ 0.5
//
mutant_name: U16A U28C U47C
yeast fitness: 0.79
//
mutant_name: C30A A45U C55U
yeast fitness: 0.589
//
mutant_name: C49U C60U A69C
yeast fitness: 0.566
//
mutant_name: C5G C29U G39A G58C A69U
yeast fitness: ≤ 0.5
